- EXPERIMENTAL DETAILS: gradient 5% acetonitrile 3 min, to 50% in 2 min, to 85% in 15 min, held 3 min, 100 µL/min
- CONDITION PARAMETERS: column: Zorbax Extend-C18 2.1 x 50 mm; eluents: water / acetonitrile, 0.1% formic acid
PROPERTY: RP-LC retention time (s)

Would you please look over these solved cases?
COc1ccc(C2CC(=O)N(c3ccc(C(C)C)cc3)C(=O)C2)cc1 :: 1030
Cc1cncn(CC(=O)NCc2cccs2)c1=O :: 580
COCc1nc(N2CCN(c3ccccc3F)CC2)ncc1C(=O)O :: 827

(I) Cc1nc2cccnc2n1C1CCN(C(=O)Nc2ccccc2Br)CC1
(II) COC(=O)c1ccc2c(=O)n(-c3cccc(C)c3)c(N3CCSCC3)nc2c1
Req: Would you let me know which has the greater RP-LC retention time value, I or II ? Choose, then provide that item's label.
Resp: II
(II: 1110 s, I: 637 s)

----------
- EXPERIMENTAL DETAILS: gradient 5% acetonitrile 3 min, to 50% in 2 min, to 85% in 15 min, held 3 min, 100 µL/min
- CONDITION PARAMETERS: column: Zorbax Extend-C18 2.1 x 50 mm; eluents: water / acetonitrile, 0.1% formic acid
PROPERTY: RP-LC retention time (s)

CCC(C)(C)NS(=O)(=O)c1ccc(-c2nc(C(C)C)cs2)s1 :: 1240
O=C1N=C(N2CCOCC2)S/C1=C/c1ccc(-c2ccccc2Br)o1 :: 872
COc1cc2nc(C(=O)N3CCC(C)CC3)cc(Nc3cccc(SC)c3)c2cc1OC :: 776
CCCC(=O)Nc1ccc2c(c1)CN(C(=O)c1ccc(C#N)cc1)C(C(=O)N(C)C)C2 (stereo unspecified) :: 681
O=C(c1ccccc1Sc1nccnc1Oc1ccccc1)N1CCOCC1 :: 859
CCC(CC)C(=O)Nc1nc(-c2ccc3c(c2)NC(=O)C(C)O3)c(C)s1 (stereo unspecified) :: 922
O=C(NCc1cccs1)c1ccc2c(c1)CC(=O)N2Cc1ccccc1 :: 817
COc1nccnc1N1CCC(NS(=O)(=O)c2ccc(C)cc2)C1 (stereo unspecified) :: 759
CCn1cc(S(=O)(=O)Nc2ccc(C)cc2)c2cccnc21 :: 838
CCn1nc(C)cc1C(=O)Nc1nc(-c2cccs2)cs1 :: 903
CN1C2CC(OC(=O)C(CO)c3ccccc3)CC1C(O)C2 (stereo unspecified) :: 586

----------
- EXPERIMENTAL DETAILS: gradient 5% acetonitrile 3 min, to 50% in 2 min, to 85% in 15 min, held 3 min, 100 µL/min
- CONDITION PARAMETERS: column: Zorbax Extend-C18 2.1 x 50 mm; eluents: water / acetonitrile, 0.1% formic acid
PROPERTY: RP-LC retention time (s)

COc1ccc(Nc2c(-c3ccc(Cl)cc3)nc3cnccn23)cc1OC :: 828
Cc1cc(C(=O)N2CC(c3nc(Cc4ccccc4)no3)C2)c(C)o1 :: 836
CCc1ccc2[nH]c3c(c(=O)c2c1)CN(CC(=O)NCc1ccccc1Cl)CC3 :: 633
CCN1CCN(c2cc(C)c3cc(NC(=O)CSc4ccccc4)ccc3n2)CC1 :: 602

----------
- EXPERIMENTAL DETAILS: gradient 5% acetonitrile 3 min, to 50% in 2 min, to 85% in 15 min, held 3 min, 100 µL/min
- CONDITION PARAMETERS: column: Zorbax Extend-C18 2.1 x 50 mm; eluents: water / acetonitrile, 0.1% formic acid
PROPERTY: RP-LC retention time (s)

CCCCCn1c(=O)c2ccccc2n(Cc2nc(-c3ccc(SC)cc3)no2)c1=O :: 1290
O=C(c1nc2ccccc2nc1Cl)N1CCN(c2ccccn2)CC1 :: 597
O=C(NCCC1CCCCN1S(=O)(=O)c1ccccc1)C(=O)Nc1ccccc1Cl (stereo not given) :: 1060

(a) CN(C)c1nc2cc(C(=O)N3CCCCC3)sc2n1-c1ccccc1
(b) CSc1cccc(NC(=O)Cn2c(-c3ccccc3)nc(C)cc2=O)c1
Req: Look at a and b . Which one has the lower recorded RP-LC retention time number? Choose, then provide that item's label.
Resp: a

(a) Cc1ccn2cc(-c3ccc(NC(=O)c4ccc(C(F)(F)F)cc4)cc3)nc2n1
(b) Cc1ccc(NS(=O)(=O)c2c(C)sc(C)c2-c2cc(C(F)(F)F)on2)c(C)c1
Req: Look at a and b . Which one has the lower recorded RP-LC retention time number? Choose, then provide that item's label.
Resp: a
(a: 739 s, b: 1240 s)

----------
- EXPERIMENTAL DETAILS: gradient 5% acetonitrile 3 min, to 50% in 2 min, to 85% in 15 min, held 3 min, 100 µL/min
- CONDITION PARAMETERS: column: Zorbax Extend-C18 2.1 x 50 mm; eluents: water / acetonitrile, 0.1% formic acid
PROPERTY: RP-LC retention time (s)

Cc1noc(-c2cc(=O)n(CC(=O)Nc3ccc4c(c3)OCO4)c3ccccc23)n1 :: 831
Cc1cc(C)c(NS(=O)(=O)c2cc(-c3cc(C(F)(F)F)on3)sc2C)c(C)c1 :: 1230
CC(=O)Nc1ccc(-n2cnc(C(=O)N3CCN(c4ccc(C)cc4)CC3)c2)nc1 :: 682
CC1(C(=O)NCc2cccc(Br)c2)Oc2cccnc2NC1=O (stereo not given) :: 730
COc1ccc(-c2ccnc3nc(CCc4ccc(OC)c(OC)c4)nn23)c(F)c1 :: 867

----------
- EXPERIMENTAL DETAILS: gradient 5% acetonitrile 3 min, to 50% in 2 min, to 85% in 15 min, held 3 min, 100 µL/min
- CONDITION PARAMETERS: column: Zorbax Extend-C18 2.1 x 50 mm; eluents: water / acetonitrile, 0.1% formic acid
PROPERTY: RP-LC retention time (s)

(P) O=S(=O)(c1cccc(-c2cn3ccccc3n2)c1)N1CCCC1
(Q) Cc1[nH]c(-c2ccccc2)cc1C(=O)N1CCCCCC1
Req: Look at P and Q . Which one has the lower recorded RP-LC retention time number? Choose, then provide that item's label.
Resp: P

----------
- EXPERIMENTAL DETAILS: gradient 5% acetonitrile 3 min, to 50% in 2 min, to 85% in 15 min, held 3 min, 100 µL/min
- CONDITION PARAMETERS: column: Zorbax Extend-C18 2.1 x 50 mm; eluents: water / acetonitrile, 0.1% formic acid
PROPERTY: RP-LC retention time (s)

Would you please look over these solved cases?
CC(=O)N1CCC(c2nc(-c3ccc4oc(-c5ccccc5)nc4c3)no2)CC1 :: 987
CC(C)NC(=O)N1CC(c2nc(-c3ccc(F)cc3)no2)C2(CCOCC2)C1 (stereo not given) :: 815
COc1ccc(-c2cn3ccn(-c4ccc(OC)c(OC)c4)c(=O)c3n2)cc1 :: 732
CCCCCNC(=O)c1cnn2c(-c3ccc4c(c3)OCO4)ccnc12 :: 1010
COC(=O)Cn1nc2ccc(S(=O)(=O)N3CCSCC3)cn2c1=O :: 711

(1) COc1ccccc1NC(=O)CN1c2ccc(F)cc2-c2ccccc2S1(=O)=O
(2) CC(C)CNC(=O)CCc1ccc2nc(-c3ccccc3)[nH]c2c1
Req: Look at 1 and 2 . Which one has the lower recorded RP-LC retention time number? Choose, then provide that item's label.
Resp: 2
(2: 618 s, 1: 1000 s)

----------
- EXPERIMENTAL DETAILS: gradient 5% acetonitrile 3 min, to 50% in 2 min, to 85% in 15 min, held 3 min, 100 µL/min
- CONDITION PARAMETERS: column: Zorbax Extend-C18 2.1 x 50 mm; eluents: water / acetonitrile, 0.1% formic acid
PROPERTY: RP-LC retention time (s)

CC(C)N1CC(CNC(=O)c2ccco2)C2(CCCCC2)C1 (stereo not drawn) :: 593
Cc1nnc2ccc(C(=O)NC(C)C)cn12 :: 590
Cc1oc(-c2ccc(C(=O)NCCCN3CCCC3)cc2)nc1COc1ccccc1 :: 715

(1) Cc1ccccc1NS(=O)(=O)c1cn(CC(C)C)c2ncccc12
(2) CCOc1cc2c(cc1OCC)C1C(C(=O)NCCCN3CCCC3)c3ccccc3C(=O)N1CC2 (stereo not drawn)
Req: Look at 1 and 2 . Which one has the lower recorded RP-LC retention time number? Choose, then provide that item's label.
Resp: 2

(1) Cc1ccc(-c2nc(NC(=O)c3sc(C)nc3C)sc2C)cc1
(2) COc1ccc(Cl)cc1NC(=O)Cn1ncc2c(N3CCN(c4ccccn4)CC3)ncnc21
Req: Would you let me know which has the greater RP-LC retention time value, 1 or 2 ? Choose, then provide that item's label.
Resp: 1

----------
- EXPERIMENTAL DETAILS: gradient 5% acetonitrile 3 min, to 50% in 2 min, to 85% in 15 min, held 3 min, 100 µL/min
- CONDITION PARAMETERS: column: Zorbax Extend-C18 2.1 x 50 mm; eluents: water / acetonitrile, 0.1% formic acid
PROPERTY: RP-LC retention time (s)

Would you please look over these solved cases?
CCOC(=O)C1CCN([C@H]2CS(=O)(=O)C[C@@H]2S(=O)(=O)c2ccc(C)cc2)CC1 :: 875
Cc1nn(C)c(C)c1CCN(C)C(=O)C1CCCCC(=O)N1 (stereo unspecified) :: 570
Cn1cnc(S(=O)(=O)N2CCC(C(=O)NCc3ccc(F)cc3)CC2)c1 :: 670
COc1ccc(CCNC(=O)N2CC(c3nc(-c4cccs4)no3)C2)cc1 :: 773
O=C(NCc1cccc(F)c1)C1CCCN(c2nnc3ccc(Cl)cn23)C1 (stereo unspecified) :: 645

(P) Cc1nc(NC2CCCCC2)sc1C(=O)Nc1cccc(F)c1
(Q) CC(C)C(=O)Nc1ccc2c(c1)nc(CN1CCCC1)n2C(C)C
(R) CC(C)Oc1ccc(-c2noc(CN3C(=O)COc4cc(C(C)(C)C)ccc43)n2)cc1
Req: Arrange items by their RP-LC retention time values in increasing order. Provide the labels, sequenced as the question asks.
Resp: Q, P, R
(Q: 602 s, P: 872 s, R: 1370 s)

(1) CN(C)C(=O)c1ccc2c(c1)n(Cc1ccccc1)c(=O)c1ccnn12
(2) COc1ccc(-n2nnc(-c3nc(-c4cc(OC)ccc4OC)cs3)c2C)cc1
Req: Would you let me know which has the greater RP-LC retention time value, 1 or 2 ? Choose, then provide that item's label.
Resp: 2
(2: 1140 s, 1: 768 s)

(P) O=C(c1ccc(F)cc1F)N1CCN(c2cc(-c3ccc(F)cc3)[nH]n2)CC1
(Q) O=C(NCCc1ccccc1)Nc1ccc(-c2nc(-c3ccccc3)co2)cc1
Req: Look at P and Q . Which one has the lower recorded RP-LC retention time number? Choose, then provide that item's label.
Resp: P
(P: 736 s, Q: 1080 s)

(P) O=C(CSc1nnc(-c2cccs2)o1)N1CCc2ccccc21
(Q) COCC1(O)CCOC2(CCN(Cc3ccc(F)cc3Cl)CC2)C1 (stereo unspecified)
Req: Would you let me know which has the greater RP-LC retention time value, P or Q ? Choose, then provide that item's label.
Resp: P
(P: 875 s, Q: 563 s)

(A) CCOC(=O)N1CCC2(CC1)N=C(c1ccc(OCC)cc1)CC(c1ccccc1O)N2 (stereo unspecified)
(B) O=C(NC1CCCCC1)c1cc2ccccc2cc1O
Req: Would you let me know which has the greater RP-LC retention time value, A or B ? Choose, then provide that item's label.
Resp: B

(1) Cc1oc(C2CCN(S(=O)(=O)Cc3ccccc3)CC2)nc1C(=O)N1CCCC1
(2) CN1CCN(S(=O)(=O)c2cccc(C#N)c2)CC1c1ccc(F)cc1 (stereo unspecified)
Req: Would you let me know which has the greater RP-LC retention time value, 1 or 2 ? Choose, then provide that item's label.
Resp: 1

(a) CCc1nc(-c2csc(S(=O)(=O)N3CCCC(C(=O)Nc4ccccc4F)C3)c2)no1 (stereo unspecified)
(b) Cc1cc2[nH]c(C(=O)Nc3ccc(F)c(F)c3F)c(CN(C)C)c2s1
Req: Look at a and b . Which one has the lower recorded RP-LC retention time number? Choose, then provide that item's label.
Resp: b

(I) COc1cccc(CC(=O)Nc2ccc3c(c2)Sc2ncccc2C(=O)N3C(C)C)c1
(II) CC(=O)c1ccc(OCC(O)CN2CCN(Cc3ccc(Cl)cc3)CC2)cc1 (stereo unspecified)
Req: Look at I and II . Which one has the lower recorded RP-LC retention time number? Choose, then provide that item's label.
Resp: II
(II: 574 s, I: 855 s)
